Readings of Kd for the listed molecules
Target: ROCK2 (Homo sapiens, UniProt O75116)
Construct: T7 phage fusion (kinase-tagged phage) or DNA tag for qPCR detection
Sequence (O75116 whole entry, the tested form may be a part): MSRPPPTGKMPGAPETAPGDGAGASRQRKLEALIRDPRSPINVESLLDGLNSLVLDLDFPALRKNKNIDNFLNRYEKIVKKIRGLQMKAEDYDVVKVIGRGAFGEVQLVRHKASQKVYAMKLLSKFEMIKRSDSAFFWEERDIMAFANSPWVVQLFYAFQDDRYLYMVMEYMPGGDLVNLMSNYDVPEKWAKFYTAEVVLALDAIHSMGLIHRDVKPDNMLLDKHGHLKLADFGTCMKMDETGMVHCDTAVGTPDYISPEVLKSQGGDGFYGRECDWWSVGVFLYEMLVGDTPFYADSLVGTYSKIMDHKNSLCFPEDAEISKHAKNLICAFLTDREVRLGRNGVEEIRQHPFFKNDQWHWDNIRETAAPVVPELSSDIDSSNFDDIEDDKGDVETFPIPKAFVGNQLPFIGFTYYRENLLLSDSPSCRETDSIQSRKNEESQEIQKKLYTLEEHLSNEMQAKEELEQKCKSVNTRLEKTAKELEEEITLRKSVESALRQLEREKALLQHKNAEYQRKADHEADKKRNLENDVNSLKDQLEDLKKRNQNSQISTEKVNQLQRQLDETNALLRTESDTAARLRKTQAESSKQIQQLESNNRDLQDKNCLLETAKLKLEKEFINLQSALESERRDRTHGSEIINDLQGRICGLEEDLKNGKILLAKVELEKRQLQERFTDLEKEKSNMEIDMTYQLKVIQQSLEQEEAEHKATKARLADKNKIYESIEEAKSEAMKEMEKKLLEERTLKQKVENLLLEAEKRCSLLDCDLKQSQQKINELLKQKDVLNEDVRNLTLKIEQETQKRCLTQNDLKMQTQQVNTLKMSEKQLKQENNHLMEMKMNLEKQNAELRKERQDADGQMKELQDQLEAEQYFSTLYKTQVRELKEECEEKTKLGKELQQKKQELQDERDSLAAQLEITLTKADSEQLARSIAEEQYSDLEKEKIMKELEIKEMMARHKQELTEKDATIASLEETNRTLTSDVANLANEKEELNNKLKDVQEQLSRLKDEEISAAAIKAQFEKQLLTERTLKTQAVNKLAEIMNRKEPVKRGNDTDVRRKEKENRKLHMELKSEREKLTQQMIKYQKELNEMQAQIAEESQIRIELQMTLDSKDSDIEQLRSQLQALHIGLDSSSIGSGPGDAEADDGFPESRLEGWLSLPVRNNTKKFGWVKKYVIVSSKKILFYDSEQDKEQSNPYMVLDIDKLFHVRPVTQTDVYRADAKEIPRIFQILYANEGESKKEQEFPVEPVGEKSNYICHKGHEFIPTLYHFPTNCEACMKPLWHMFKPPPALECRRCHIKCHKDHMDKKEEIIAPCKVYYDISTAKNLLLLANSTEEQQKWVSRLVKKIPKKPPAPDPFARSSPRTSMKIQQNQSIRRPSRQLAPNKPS
Test: ROCK2 kinase binding affinity, DiscoverX KINOMEscan KdELECT
Conditions: KINOMEscan KdELECT, 11-point 3-fold dilution; read-out: Kd (μM) ROCK2
Protocol: 1. ROCK1 and ROCK2 kinase assays: The ROCK1 and ROCK2 kinase binding affinities of compounds in this disclosure were determined by DiscoverX's KINOMEscan™ KdELECT technology (https://www.discoverx.com/kinomescan-elect-kinase-screening-and-profiling-services): Kinase-tagged T7 phage strains were prepared in an E. coli host derived from the BL21 strain. […] Kds were determined using an 11-point 3-fold compound dilution series with three DMSO control points. […]

Consider the molecule CC1(C)CCC(CNc2nccc(-c3nccc(C#Cc4ccc5[nH]ncc5c4)n3)n2)O1 (stereo not shown) and give its measured Kd. < 0.01 µM

Cool, now CC1(CNc2nccc(-c3nccc(C#Cc4ccc5[nH]ncc5c4)n3)n2)CCCO1 (stereo not shown) 0.01 to 0.099 µM

Cc1n[nH]c2ccc(C#Cc3ccnc(-c4ccnc(NCc5ccc(F)cn5)n4)n3)cc12 ? 0.1 to 0.99 µM

And Fc1cncc(CNc2nccc(-c3nccc(C#Cc4ccc5[nH]ncc5c4)n3)n2)c1 ? 0.1 to 0.99 µM

###

molecular target: ROCK1 (Homo sapiens); construct: T7 phage fusion (kinase-tagged phage) or DNA tag for qPCR detection; assay: ROCK1 kinase binding affinity, DiscoverX KINOMEscan KdELECT; settings: 11-point 3-fold dilution
Collected Kd values appear next to each entry.

Fc1ncccc1CNc1nccc(-c2nccc(C#Cc3ccc4[nH]ncc4c3)n2)n1 [Ex. 6]; 0.01 to 0.099 µM
Fc1cc(CNc2nccc(-c3nccc(C#Cc4ccc5[nH]nc(F)c5c4)n3)n2)ccn1 [Ex. 61]; 10 to 100 µM
Fc1ccccc1CNc1nccc(-c2nccc(C#Cc3ccc4[nH]ncc4c3)n2)n1 [Ex. 15]; 10 to 100 µM
C(#Cc1ccnc(-c2ccnc(NCc3ncccn3)n2)n1)c1ccc2[nH]ncc2c1 [Ex. 7]; 0.1 to 0.99 µM
CN(C)CCNc1nccc(-c2nccc(C#Cc3ccc4[nH]ncc4c3)n2)n1 [Ex. 54]; 1 to 9.9 µM
O[C@H]1CC[C@H](Nc2nccc(-c3nccc(C#Cc4ccc5[nH]ncc5c4)n3)n2)C1 [Ex. 90]; 1 to 9.9 µM
Cc1ccnc(F)c1CNc1nccc(-c2nccc(C#Cc3ccc4[nH]ncc4c3)n2)n1 [Ex. 70]; 10 to 100 µM
Fc1ncccc1CNc1nccc(-c2nccc(C#Cc3ccc4[nH]nc(F)c4c3)n2)n1 [Ex. 43]; 10 to 100 µM

Recorded Kd of CC(C)(N)CNc1nccc(-c2nccc(C#Cc3ccc4[nH]ncc4c3)n2)n1 [Ex. 89] , please. 1 to 9.9 µM

Thanks! And C(#Cc1ccnc(-c2ccnc(NCC3CCCCO3)n2)n1)c1ccc2[nH]ncc2c1 (centres unmarked) [Ex. 76] ? 1 to 9.9 µM

Another: Fc1nccc(Cl)c1CNc1nccc(-c2nccc(C#Cc3ccc4[nH]ncc4c3)n2)n1 [Ex. 64] 0.1 to 0.99 µM

###

target: ROCK1 (Homo sapiens); construct: T7 phage fusion (kinase-tagged phage) or DNA tag for qPCR detection; experiment: ROCK1 kinase binding affinity, DiscoverX KINOMEscan KdELECT; settings: 11-point 3-fold dilution
List of Kd values.

Known Kd results, listed for orientation:
Fc1cc(CNc2nccc(-c3nccc(C#Cc4ccc5[nH]ncc5c4)n3)n2)ccn1; 1 to 9.9 µM
O[C@@H]1CC[C@H](Nc2nccc(-c3nccc(C#Cc4ccc5[nH]ncc5c4)n3)n2)C1; 0.1 to 0.99 µM
Fc1ncccc1CNc1nccc(-c2nccc(C#Cc3cc(F)c4[nH]ncc4c3)n2)n1; 1 to 9.9 µM
O[C@@H]1CC[C@@H](Nc2nccc(-c3nccc(C#Cc4ccc5[nH]ncc5c4)n3)n2)C1; 1 to 9.9 µM
COc1ccccc1CNc1nccc(-c2nccc(C#Cc3ccc4[nH]ncc4c3)n2)n1; 1 to 9.9 µM

Quick check: Kd of COC(=O)[C@H]1CC[C@@H](Nc2nccc(-c3nccc(C#Cc4ccc5[nH]ncc5c4)n3)n2)CC1 ? 0.1 to 0.99 µM

What would you report for O=c1[nH]cccc1CNc1nccc(-c2nccc(C#Cc3ccc4[nH]ncc4c3)n2)n1 ? 0.1 to 0.99 µM

###

Reported Kd values for a set of compounds
molecular target: ROCK1 (Homo sapiens, UniProt Q13464); construct: T7 phage fusion (kinase-tagged phage) or DNA tag for qPCR detection; test: ROCK1 kinase binding affinity, DiscoverX KINOMEscan KdELECT; conditions: 11-point 3-fold dilution
Sequence (Q13464 whole entry, the tested form may be a part): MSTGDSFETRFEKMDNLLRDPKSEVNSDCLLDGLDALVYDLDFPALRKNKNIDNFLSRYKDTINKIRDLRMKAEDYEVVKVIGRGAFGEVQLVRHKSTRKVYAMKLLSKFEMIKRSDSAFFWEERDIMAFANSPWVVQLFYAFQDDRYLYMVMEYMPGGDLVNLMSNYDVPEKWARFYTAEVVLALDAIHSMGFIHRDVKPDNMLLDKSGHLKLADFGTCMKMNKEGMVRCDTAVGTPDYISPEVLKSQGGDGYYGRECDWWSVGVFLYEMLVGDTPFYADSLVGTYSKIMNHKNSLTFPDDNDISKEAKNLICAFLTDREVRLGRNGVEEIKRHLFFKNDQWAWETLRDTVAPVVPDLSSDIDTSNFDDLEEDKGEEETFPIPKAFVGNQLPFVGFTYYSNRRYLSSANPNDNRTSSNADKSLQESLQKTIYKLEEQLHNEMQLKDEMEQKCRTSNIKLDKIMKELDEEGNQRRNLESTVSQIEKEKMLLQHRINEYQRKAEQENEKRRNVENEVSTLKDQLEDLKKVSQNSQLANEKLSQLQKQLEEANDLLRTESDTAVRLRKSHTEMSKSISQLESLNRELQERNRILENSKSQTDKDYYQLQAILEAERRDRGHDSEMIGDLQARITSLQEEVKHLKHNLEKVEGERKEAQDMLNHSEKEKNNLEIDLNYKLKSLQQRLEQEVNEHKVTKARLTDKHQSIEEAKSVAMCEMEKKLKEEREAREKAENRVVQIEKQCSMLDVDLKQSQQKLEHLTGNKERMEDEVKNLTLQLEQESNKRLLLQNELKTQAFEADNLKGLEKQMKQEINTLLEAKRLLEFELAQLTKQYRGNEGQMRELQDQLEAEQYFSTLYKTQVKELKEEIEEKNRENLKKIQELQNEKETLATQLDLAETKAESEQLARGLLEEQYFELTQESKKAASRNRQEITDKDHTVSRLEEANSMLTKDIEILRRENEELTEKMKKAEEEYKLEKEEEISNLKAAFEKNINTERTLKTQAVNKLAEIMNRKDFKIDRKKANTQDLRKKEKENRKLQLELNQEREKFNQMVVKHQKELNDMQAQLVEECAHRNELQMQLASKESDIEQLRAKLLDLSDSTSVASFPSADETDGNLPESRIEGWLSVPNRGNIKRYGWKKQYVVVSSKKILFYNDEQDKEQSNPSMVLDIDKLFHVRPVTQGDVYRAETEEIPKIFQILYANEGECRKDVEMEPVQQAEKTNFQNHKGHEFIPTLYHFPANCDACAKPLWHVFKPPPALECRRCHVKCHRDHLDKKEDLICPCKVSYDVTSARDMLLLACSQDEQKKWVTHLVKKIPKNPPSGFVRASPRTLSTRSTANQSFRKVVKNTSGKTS
Structures can show the parent of a compound that is named as a salt.

Worked examples, 4 compounds total:
C(#Cc1ccnc(-c2ccnc(NCc3ccc4c(c3)CNC4)n2)n1)c1ccc2[nH]ncc2c1 [Ex. 20, trifluoroacetate salt]; 0.1 to 0.99 µM
C(#Cc1ccnc(-c2ccnc(NCc3nc4ccccc4[nH]3)n2)n1)c1ccc2[nH]ncc2c1; 10 to 100 µM
COC(=O)[C@H]1CC[C@H](Nc2nccc(-c3nccc(C#Cc4ccc5[nH]ncc5c4)n3)n2)CC1; 0.1 to 0.99 µM
C(#Cc1ccnc(-c2ccnc(NCC3CCCO3)n2)n1)c1ccc2[nH]ncc2c1 (stereo not shown); 0.1 to 0.99 µM

Endpoint output: Kd of O[C@H]1CC[C@H](Nc2nccc(-c3nccc(C#Cc4ccc5[nH]ncc5c4)n3)n2)CC1 . Value? 1 to 9.9 µM

Here is the next compound: O[C@H]1CC[C@@H](Nc2nccc(-c3nccc(C#Cc4ccc5[nH]ncc5c4)n3)n2)CC1 0.1 to 0.99 µM

Moving on to the next compound: Cc1n[nH]c2ccc(C#Cc3ccnc(-c4ccnc(NCc5ccc(F)cn5)n4)n3)cc12 0.1 to 0.99 µM

Let us now turn to Fc1cnc(CNc2nccc(-c3nccc(C#Cc4ccc5[nH]ncc5c4)n3)n2)c(F)c1 0.1 to 0.99 µM

# repeat for O[C@H]1CC[C@@H](Nc2nccc(-c3nccc(C#Cc4ccc5[nH]nc(F)c5c4)n3)n2)C1 1 to 9.9 µM

###

target: ROCK1 (Homo sapiens); construct: T7 phage fusion (kinase-tagged phage) or DNA tag for qPCR detection; experiment: ROCK1 kinase binding affinity, DiscoverX KINOMEscan KdELECT; details: 11-point 3-fold dilution
Quantity: Kd

Fc1ccc(CNc2nccc(-c3nccc(C#Cc4ccc5[nH]nc(F)c5c4)n3)n2)nc1 [Ex. 45]; 10 to 100 µM

I would be grateful if you could share the reported Kd for CC1(O)CN(C(=O)CNc2nccc(-c3nccc(C#Cc4ccc5[nH]ncc5c4)n3)n2)C1 [Ex. 84] . 1 to 9.9 µM

Also O=S1(=O)CCC(CNc2nccc(-c3nccc(C#Cc4ccc5[nH]ncc5c4)n3)n2)CC1 [Ex. 85] , if possible. 1 to 9.9 µM

Okay, and O=C(CNc1nccc(-c2nccc(C#Cc3ccc4[nH]ncc4c3)n2)n1)N1CCOCC1 [Ex. 41] ? 1 to 9.9 µM

Where these numbers come from: patent US20230295131A1
